assay-method-text: viability gain of MRP-1-high H69AR cells under doxorubicin, pilot screen, MRP-1 activator project, CellTiter-Glo, duplicate (AID 807);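 note: compound pretreatment 18-22 h then 72 h combined with doxorubicin; 0% = doxorubicin alone and 100% = vehicle without doxorubicin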
details: H69AR viability with doxorubicin, CellTiter-Glo luminescence; at 10 µM; hits give high values
Non-standard residues stand in square brackets, D forms with d. Residues, ends and D or L forms follow the SMILES beside them. ξ: configuration not given here. *: point of attachment. Cbz = O=C(OCc1ccccc1)*; ξV = CC(C)C(N)C(=O)O; OtBu = CC(C)(C)O*
parameter-measured: viability increase (%)
Could you give me the number in %? Just the number is fine.

The compound listed as O=C(N1CCN(c2ccc(F)cc2)CC1)C12CC3CC(CC(C3)C1)C2 has a reported viability increase of -0.18

Recorded viability increase (compound O=C1c2ccccc2C(=O)N1CSc1nnnn1-c1ccccc1 ): -2.14

Sample O=C(c1ccc(CN2CCOCC2)cc1)N1CCN(Cc2ccccc2)CC1 ; viability increase observed: 0.28

Field viability increase (entry CCOC(=O)c1nc(-c2ccc3c(c2)OCO3)[nH]c1C ) reads -6.6

For reference, reported viability increase for Cc1cc(N2CCOCC2)nc2cc(O)ccc12 stands at -1.02

// sample COc1ccc(C2C(C(=O)NCC3CCCO3)c3cc(OC)c(OC)cc3C(=O)N2C)cc1OC (stereo unspecified) , its viability increase was -1.75

Sample O=C(NCCc1ccc(S(=O)(=O)N2CCCC2)cc1)c1cccs1 ; viability increase observed: -1.73

// viability increase lookup, compound = O=C(NCc1ccc2c(c1)OCO2)c1cnc2n(c1=O)CCS2 , result: -0.06

Reported viability increase ( O=C(NC1=NCCS1)C1CC2CCC1C2 (stereo unspecified) ) = -2.34

Just so you know, measured viability increase for C=C(C)Cn1c(CCNC(=O)CCC)nc2ccccc21 came out at -0.98

Entry CCN1C(=O)c2ccccc2S(=O)c2ccc(C(=O)N3CCCC3)cc21 (stereo unspecified) , viability increase reported as -1.58

compound CCn1cc(C(=O)NCc2cccnc2)c2cc(OC)c(OC)cc2c1=O , viability increase observed: -2.26

Recorded viability increase (compound O=C1CN(C(=O)c2ccc(Br)o2)C(c2ccccc2)c2cc(Br)ccc2N1 (stereo unspecified) ): -8.1

Lookup result for CC(C)C(NC(=O)OCc1ccccc1)C(=O)NCC(=O)OC(C)(C)C (stereo unspecified) (Cbz-[ξV]-Gly-OtBu) ; measured viability increase: 0.2

The compound listed as CN(C)c1ccc(NC(=O)Cn2c(=O)n(Cc3ccccc3)c(=O)c3ccccc32)cc1 shows viability increase equal to 3

viability increase in this record for CCN(CC)S(=O)(=O)c1ccc(C2CNC(=O)C2)cc1 (stereo unspecified) : 1.75

Recorded result, C/C(CC(O)c1ccc2ccccc2n1)=N/O (stereo unspecified) , viability increase: -0.7

Looking up CC1CCCN(c2nc3c(c(=O)[nH]c(=O)n3C)n2Cc2ccccc2Cl)C1 (stereo unspecified) , I see its viability increase listed as -5.4

CCN(CC)CCCN1C(=O)C(O)=C(C(C)=O)C1c1ccc(OC)cc1OC (stereo unspecified) yielded viability increase of -2.64

Recorded viability increase (compound COc1cccc(C2NC(CCSC)(C(=O)O)C3C(=O)N(C(C)C)C(=O)C23)c1O (stereo unspecified) ): 0.13

Recorded result, Brc1ccc2ncnc(NCc3ccco3)c2c1 , viability increase: -7.68

The recorded viability increase for entry COc1ccc(Oc2coc3c(CN(C)C)c(O)ccc3c2=O)cc1 equals -7.46

Short answer for Cc1ccc2c(c1)-c1c(cnn1CC(=O)N1CCCN(Cc3ccccc3F)C1)CO2 : viability increase was -2.83

O=C(c1cc(C2CC2)on1)N1CCOCC1 has a reported viability increase of 0.15

Lab book: viability increase of CCC1CCCCN1C(=O)CSc1nc2c([nH]c3ccccc32)c(=O)n1C (stereo unspecified) noted as -8.15

Recorded result, COC(=O)C1=C(N)OC2=C(C(=O)CC(C)(C)C2)C1c1cccnc1 (stereo unspecified) , viability increase: -1.92
